Data origin, for the record: PubChem BioAssay (NCI)

System: HCC-2998 colon
Assay: NCI-60 one-dose screen, 48 h
Conditions: 10 µM unless noted
The panel holds about 83,000 compounds, 20% with a hit somewhere; the sample as a whole holds those more often. Activity calls are given as the source filed them. How the source made its calls: active means growth percent below 10; inactive means the rest.
Outcomes: t (active), f (inactive)

COC(=O)/C=C1/SC(=Nc2cccc(Cl)c2)N(CCc2c[nH]c3ccc(O)cc23)C1=O :: t
O=C(c1ccc(Cl)cc1Cl)N1c2ccccc2Sc2ccccc21 :: f
C=C1C(=O)O[C@H]2[C@H]1CC/C(COC(=O)c1cc3cc(F)ccc3[nH]1)=C\CC[C@@]1(C)O[C@@H]21 :: t
CC(C)(CO)N(CCO)CCO :: f
C=C1C(=O)O[C@H]2[C@H]1CC/C(Cn1cc(-c3cc(C(F)(F)F)cc(C(F)(F)F)c3)nn1)=C\CC[C@@]1(C)O[C@@H]21 :: t
O=C(CN1CCN(c2cc3c(cc2F)c(=O)c(C(=O)O)cn3C2CC2)CC1)N/N=C/c1ccncc1 :: f
COc1ccc(Cn2cc(C(=O)N=Nc3c(O)[nH]c4c(Cl)cccc34)nn2)cc1 :: f
CCOC(=O)c1c(NC(=O)c2ccc(OC)cc2)sc2c(CN(C)C)c(O)ccc12 :: f
COc1ccccc1NC(=O)c1ccc(/C=C/C(=O)c2nccn2C)cc1 :: t

---

Tested on: KM12 colon
Experiment: NCI-60 one-dose screen, 48 h (100 = growth as untreated, 0 = no growth, -100 = all killed)
Settings: 10 µM unless noted
The panel holds about 83,000 compounds, 20% with a hit somewhere; the sample as a whole holds those more often.
Output: class label from growth. Mapping: low (below 20%), medium (20% to below 50%), high (50% or more)

COc1ccc(Cn2cc(C(=O)N=Nc3c(O)[nH]c4c(Cl)cccc34)nn2)cc1 :: high
N#Cc1c(-c2ccccc2)cc(-c2ccccc2)n(CCCC(=O)NO)c1=O :: medium
C=C1C(=O)O[C@H]2[C@H]1CC/C(CNC(=O)c1cc3ccccc3[nH]1)=C\CC[C@@]1(C)O[C@@H]21 :: low
O=C(CCCCCCCCC(=O)N/N=C\c1cc(Cl)ccc1O)N/N=C\c1cc(Cl)ccc1O :: medium
CCNCc1ccc(O)c2ncccc12 :: medium
COc1cc(-c2nc3ccc(C)cc3[nH]2)ccc1OCC(=O)N=Nc1c(O)[nH]c2ccc(Cl)cc12 :: low
CCCCCSB(SCCCCC)c1ccccc1 :: high
C[N+](C)(C/C=C/c1ccccc1)Cc1ccccc1 :: high
CN1CCN(Cc2cc(NC(=O)c3cccc(C#Cc4cccc5[nH]nc(N)c45)c3)cc(C(F)(F)F)c2)CC1 :: low

---

System: EKVX NSCLC
Assay: NCI-60 one-dose screen, 48 h
Conditions: 10 µM unless noted
Compounds without any hit were thinned out: in the full panel of roughly 83,000, 20% have a hit. Active and inactive are the calls of the source. How the source made its calls: active means growth percent below 10; inactive means the rest.
Outcomes: yes (1) (active), no (0) (inactive)

COc1cccc(NC(=O)c2cccc(C3CCc4c(cc(OC)c(OC)c4OC)O3)c2)c1 (stereo not given) :: no (0)
N#CC(C#N)N=Nc1ccc(Cl)cc1Cl :: no (0)
COc1cc(OC)cc(C2C(C#N)=C(N)Oc3c2ccc2ccc(O)cc32)c1 (stereo not given) :: no (0)
COc1cc(-c2nc3ccc(C)cc3[nH]2)ccc1OCC(=O)N=Nc1c(O)[nH]c2ccc(Cl)cc12 :: no (0)
Cn1c(=O)c2c(nc(NC3=NS(=O)(=O)c4ccccc43)n2Cc2ccccc2)n(C)c1=O :: no (0)
Cc1ccc2[nH]c(-c3ccc(S(C)(=O)=O)cc3)c(/C=N/N=C(N)N)c2c1 :: no (0)
COc1ccc(OC)c(-c2cn3nc(-c4c[nH]c5ccc(Br)cc45)sc3n2)c1 :: no (0)
O=C(N/N=C/c1ccc([N+](=O)[O-])cc1)c1ccc2nc(-c3ccc(Cl)cc3)[nH]c2c1 :: no (0)
O=C(Nc1cccc(NC(=O)C2CCCCC2)c1)c1ccccn1 :: no (0)
Cc1nc2ccccc2c(/C=C/c2ccc(C(F)(F)F)cc2)c1C(=O)/C=C/c1ccccc1 :: yes (1)
CCOC(=O)c1c(-c2ccc(Cl)cc2)c(C#N)c2c(C#N)c(N)nn2c1N :: no (0)
COc1ccc(Cc2cnc(NC(=O)c3sc4ccccc4c3Cl)s2)cc1 :: no (0)
CCOC(=O)c1c(NC(=O)c2ccc(C(C)(C)C)cc2)sc2cc(O)ccc12 :: no (0)
Cc1c2cnccc2c(C)c2c1c1cc(C3OCCCO3)ccc1n2C :: yes (1)
Oc1c(CN2CCCC2)cc(COCc2ccccc2)c2cccnc12 :: no (0)
Cc1cc(N2CCN(C)CC2)nc(NCc2cc(Nc3ccnc4cc(Cl)ccc34)ccc2F)n1 :: no (0)
CCC(CC)(N(CC(=O)O)CC(=O)O)C(CC)(CC)N(CC(=O)O)CC(=O)O :: no (0)
CCCCc1oc2ccccc2c1C(=O)c1ccc(O)cc1 :: no (0)
CC[C@H](CC[C@@H](C)[C@H]1CC[C@H]2[C@@H]3CC[C@@H]4CC(=O)/C(=C\c5ccncc5)C[C@]4(C)[C@H]3CC[C@]12C)C(C)C :: no (0)
O=C(/C=C/c1cccc(Cl)c1)c1cccc(OCCCCOc2cccc(C(=O)/C=C/c3cccc(Cl)c3)c2)c1 :: no (0)
C(/C=C/c1ccccc1)=Nc1ccc(CCc2ccc(N=C/C=C/c3ccccc3)cc2)cc1 :: no (0)
O=C1/C(=C/c2cccc([N+](=O)[O-])c2)COc2ccc(O)cc21 :: no (0)
CCn1c2ccc(O)cc2c2c(C)c3c[n+](C(C)C)ccc3c(C)c21 :: no (0)
CCCCCCOC(=O)CC1=C(C)/C(=C/c2[nH]c(-c3ccc[nH]3)cc2OC)N=C1C :: yes (1)
Cc1cccc(NC(=O)CSc2nc3ccc([N+](=O)[O-])cc3[nH]2)c1 :: no (0)
Cc1ccc(/C=C2\CN(C(=O)C(Cl)Cl)C/C(=C\c3ccc(C)cc3)C2=O)cc1 :: yes (1)
Cc1ccc2[nH]c(=O)c3c(c2c1)OC(N)=C(C#N)C31C(=O)c2cccc3cccc1c23 (stereo not given) :: no (0)
NC(CSC(c1ccccc1)(c1ccccc1)c1ccc2c(c1)OCO2)C(=O)O (stereo not given) :: no (0)
CCOC(=O)c1c2c(n3ccccc13)C(=O)c1ncccc1C2=O :: no (0)
COc1ccc(Nc2ncc(C(N)=O)c(NCCCNC(=O)C3CCC3)n2)cc1 :: no (0)
O=C(CSc1nc2ccc([N+](=O)[O-])cc2[nH]1)Nc1cccc([N+](=O)[O-])c1 :: no (0)
Cc1cc(N2CCCCC2)nc(N2CCN(CC(=O)Nc3ccc4c(ccn4Cc4ccccc4)c3)CC2)n1 :: no (0)
O=C1/C(=C/c2ccccc2[N+](=O)[O-])COc2ccc(O)cc21 :: no (0)
Cc1[nH]c(C(=O)Nc2cccc(OC3CCNCC3)c2)c(Cl)c1Cl :: no (0)
O=C(Cn1cc(CN2C(=O)c3ccccc3S2(=O)=O)nn1)Nc1cccc(Cl)c1 :: no (0)
CCCCN1C(=O)/C(=c2\sc3n(c2=O)NC2C(N=3)N(CC)C(=O)N2CC)c2ccccc21 (stereo not given) :: no (0)
Cc1cc2nc3c4ccccc4n(CCN(C)C)c3nc2cc1C :: no (0)
COc1cc(C#Cc2ccc(=O)oc2C#Cc2ccccc2)cc(OC)c1OC :: no (0)
NC(=O)c1ccc(NC(=O)c2oc3ccccc3c2-c2cnn(-c3ccccc3)c2)cc1 :: yes (1)
CCCCCCCCCCCCCCCCOC(=O)c1c(C)[nH]c(/C=C2\N=C(c3ccc[nH]3)C=C2OC)c1C :: no (0)
